Target: HDAC 8 (Homo sapiens)
Sequence (Q9BY41 1-377): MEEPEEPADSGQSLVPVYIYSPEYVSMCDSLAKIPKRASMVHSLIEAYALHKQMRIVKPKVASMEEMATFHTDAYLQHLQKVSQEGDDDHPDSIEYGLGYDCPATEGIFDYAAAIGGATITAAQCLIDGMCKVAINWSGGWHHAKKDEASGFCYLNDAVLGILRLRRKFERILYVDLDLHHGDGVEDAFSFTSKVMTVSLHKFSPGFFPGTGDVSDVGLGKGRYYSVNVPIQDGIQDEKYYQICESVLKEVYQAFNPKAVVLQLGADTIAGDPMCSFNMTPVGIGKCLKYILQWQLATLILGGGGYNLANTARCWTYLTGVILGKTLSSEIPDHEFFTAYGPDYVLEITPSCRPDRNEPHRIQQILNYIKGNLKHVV
Assay: HDAC enzyme fluorescence assay, HDAC 8
Assay type: biochemical
Set-up: concentration or dose not given beside the values
Conditions: (HDAC inhibitory activity of example compound/HDAC inhibitory activity of SAHA) × 100
Measured Endpoint: Inhibitory activity (%) HDAC 8

- Compound: "COc1ccc([S+]([O-])C/C=C/SSCc2ccc(Cl)cc2)cc1 (centres unmarked)"
  Measured Endpoint: "Inhibitory activity (%) HDAC 8"
  Experimental Value: 107.2
- Compound: "COc1ccc([S+]([O-])C/C=C/SSCc2ccc(Cl)c(Cl)c2)cc1 (centres unmarked)"
  Measured Endpoint: "Inhibitory activity (%) HDAC 8"
  Experimental Value: 106.1
- Compound: "COc1ccc([S+]([O-])C/C=C\\SSCc2ccccc2)cc1 (centres unmarked)"
  Measured Endpoint: "Inhibitory activity (%) HDAC 8"
  Experimental Value: 150.4
- Compound: "C=CCSS/C=C\\C[S+]([O-])CC=C (centres unmarked) [Comparative Example 2, Z-Ajoene, reference compound]"
  Measured Endpoint: "Inhibitory activity (%) HDAC 8"
  Experimental Value: 52.5
- Compound: "COc1cccc([S+]([O-])C/C=C\\SSCc2ccc(Cl)cc2)c1 (centres unmarked)"
  Measured Endpoint: "Inhibitory activity (%) HDAC 8"
  Experimental Value: 140.4
- Compound: "COc1ccc([S+]([O-])C/C=C\\SSCc2ccc(Cl)cc2)cc1 (centres unmarked)"
  Measured Endpoint: "Inhibitory activity (%) HDAC 8"
  Experimental Value: 98.7
- Compound: "[O-][S+](C/C=C\\SSCc1ccc(Cl)c(Cl)c1)c1ccccc1 (centres unmarked)"
  Measured Endpoint: "Inhibitory activity (%) HDAC 8"
  Experimental Value: 146.4
- Compound: "COc1cccc([S+]([O-])C/C=C\\SSCc2ccccc2)c1 (centres unmarked)"
  Measured Endpoint: "Inhibitory activity (%) HDAC 8"
  Experimental Value: 114.3

P = C=CCSS/C=C\C[S+]([O-])c1ccccc1 (centres unmarked)
Q = COc1ccc([S+]([O-])C/C=C\SSCc2ccc(F)cc2)cc1 (centres unmarked)
Ask | Lab note: record which item had the higher Inhibitory activity (%) HDAC 8, P or Q . Please respond with the label that marks your chosen entry.
Reply | Q
(Q: 68.1%, P: 37.5%)

1 = C=CCSS/C=C/C[S+]([O-])c1ccc(OC)cc1 (centres unmarked)
2 = [O-][S+](C/C=C/SSCc1ccc(Cl)c(Cl)c1)c1ccccc1 (centres unmarked)
3 = COc1cccc([S+]([O-])C/C=C\SSCc2ccc(F)cc2)c1 (centres unmarked)
4 = [O-][S+](C/C=C\SSCc1ccc(F)cc1)c1ccccc1 (centres unmarked)
Ask | Task field, ranking: reported Inhibitory activity (%) HDAC 8, descending order. When ranking, write the labels in the order the request describes.
Reply | 3, 2, 1, 4

P = C=CCSS/C=C\C[S+]([O-])c1cccc(OC)c1 (centres unmarked)
Q = COc1cccc([S+]([O-])C/C=C/SSCc2ccc(Cl)cc2)c1 (centres unmarked)
R = [O-][S+](C/C=C/SSCc1ccc(F)cc1)c1ccccc1 (centres unmarked)
Ask | With regard to Inhibitory activity (%) HDAC 8, arrange the entries in ascending order, please. When ranking, write the labels in the order the request describes.
Reply | R, Q, P
